# target: NOX2 (Homo sapiens, UniProt P04839)
# Construct: isolated plasma membranes from human neutrophils as a source for Nox2-p22phox; from tissue; host or cells: Plasma membranes of human neutrophils (Nox2-p22phox); cytosolic factors recombinant from E. coli
# testProtocol: Nox2 cell-free assay (LO12 luminescence)
# Type: biochemical
# experimentalSetup: Nox2 cell-free system; value in parentheses; read-out: % inhibition (maximum inhibition achieved at a very high concentration of the compound)
resultType: Emax (%)
Lab book: enter the figure in %, no units written.

Prompt: Fill blank: measured Emax of the compound CN(C)CCCn1c(=S)[nH]c2ccccc2c1=O is ____.
Response: 60

Prompt: Quick one: O=c1c2cc(Cl)ccc2[nH]c(=S)n1CCN1CCCCC1
Response: 50

Prompt: Quick one: CN(C)CCCn1c(SCC(=O)Nc2nc(-c3cccc(Br)c3)cs2)nc2ccc(Cl)cc2c1=O
Response: 90

Prompt: Quick one: CCN(CC)CCn1c(=S)[nH]c2ccccc2c1=O
Response: 97

Prompt: Quick one: COc1ccc(N(C)CCCn2c(=S)[nH]c3ccc(F)cc3c2=O)cc1
Response: 50

Prompt: Quick one: CSc1nc2ccc(F)cc2c(=O)n1CCC[N+](C)(C)C
Response: 100

Prompt: Quick one: CCCN(CCC)CCCn1c(SCC(=O)Nc2nc(-c3cccc(Br)c3)cs2)nc2ccccc2c1=O [AS173b]
Response: 40

Prompt: Quick one: Cc1ccc(-c2csc(NC(=O)CSc3nc4ccccc4c(=O)n3CCCN(C)C)n2)cc1
Response: 90

Prompt: Quick one: CN(C)CCCCn1c(SCC(=O)Nc2nc(-c3cccc(Br)c3)cs2)nc2ccccc2c1=O
Response: 100

---

# target: NOX2 (Homo sapiens)
# Construct: isolated plasma membranes from human neutrophils as a source for Nox2-p22phox; from tissue; host or cells: Plasma membranes of human neutrophils (Nox2-p22phox); cytosolic factors recombinant from E. coli
# testProtocol: Nox2 cell-free assay (LO12 luminescence)
# Type: biochemical
# experimentalSetup: Nox2 cell-free system; value in parentheses; read-out: % inhibition (maximum inhibition achieved at a very high concentration of the compound)
I'd appreciate it if you could supply Emax values for the items below.
Lab book: enter the figure in %, no units written.

Prompt: Fill blank: measured Emax of the compound O=c1c2ccccc2[nH]c(=S)n1CCCN1CCOCC1 is ____.
Response: 80

Prompt: Quick one: CN(C)CCCn1c(=S)[nH]c2cc(F)c(F)cc2c1=O
Response: 60

Prompt: Quick one: O=C(CSc1nc2ccccc2c(=O)n1CCCO)Nc1nc(-c2cc(F)ccc2F)cs1
Response: 20

Prompt: Quick one: CN(C)CCCn1c(=S)[nH]c2ccc(F)cc2c1=O
Response: 60

Prompt: Quick one: O=c1c2ccccc2[nH]c(=S)n1CCN1CCCC1
Response: 80

Prompt: Quick one: CN(C)CCCn1c(SCC(=O)Nc2cc(-c3ccc(Cl)cc3)no2)nc2ccccc2c1=O [AS154b]
Response: 100

Prompt: Quick one: CSc1nc2ccccc2c(=O)n1CCC[N+](C)(C)C
Response: 95

Prompt: Quick one: CSc1nc2ccccc2c(=O)n1CCC[N+]1(C)CCOCC1
Response: 100

Prompt: Quick one: COc1cc2[nH]c(=S)n(CCCN(C)C)c(=O)c2cc1OC
Response: 60

Prompt: Quick one: CN(C)CCCn1c(=S)[nH]c2cc(Cl)ccc2c1=O
Response: 90

---

# target: NOX2 (Homo sapiens)
# Construct: isolated plasma membranes from human neutrophils as a source for Nox2-p22phox; cytosolic factors recombinant from E. coli
# testProtocol: Nox2 cell-free assay (LO12 luminescence)
# experimentalSetup: Nox2 cell-free system; read-out: NOX2 IC50 (concentration giving half-maximal inhibition)
resultType: IC50 (nM)
Lab book: enter the figure in nM, no units written.

Prompt: Entry COc1ccc(N(C)CCCn2c(=S)[nH]c3ccc(Cl)cc3c2=O)cc1 , system NOX2 (Homo sapiens): what IC50 was measured?
Response: 200

Prompt: Quick one: CSc1nc2ccccc2c(=O)n1CCC[N+]1(C)CCOCC1
Response: 1500

Prompt: Quick one: CSc1nc2ccccc2c(=O)n1CCC[N+](C)(C)C
Response: 1500

Prompt: Quick one: COc1cc2[nH]c(=S)n(C#N)c(=O)c2cc1OC
Response: 200

Prompt: Quick one: O=c1c2cc(Cl)ccc2[nH]c(=S)n1CCN1CCCCC1
Response: 1500

Prompt: Quick one: CN(C)CCCn1c(SCC(=O)Nc2nc(-c3ccc(Br)cc3)cs2)nc2c(c1=O)CCCC2
Response: 17500

Prompt: Quick one: Nn1c(=S)[nH]c2cc3c(cc2c1=O)OCCO3 [AS2-014a]
Response: 600

Prompt: Quick one: COC(=O)c1ccc2c(=O)n(N)c(=S)[nH]c2c1 [AS-261B]
Response: 500

Prompt: Quick one: COc1cc2[nH]c(=S)n(N)c(=O)c2cc1OC [AS-261A]
Response: 200

Prompt: Quick one: CN(C)CCCn1c(=S)[nH]c2cc(F)c(F)cc2c1=O [TG6-64]
Response: 1000

Prompt: Quick one: O=C(c1ccc(F)cc1)N1CCN(CCn2c(=S)[nH]c3ccc(Cl)cc3c2=O)CC1
Response: 2000

Prompt: Quick one: CN(C)CCCn1c(SCC(=O)Nc2nc(-c3ccc(Br)cc3)cs2)nc2ccccc2c1=O [AS158a]
Response: 5000

Prompt: Quick one: CC(C)n1c(=S)[nH]c2cc(F)c(F)cc2c1=O
Response: 700

Prompt: Quick one: CN(C)CCCCn1c(SCC(=O)Nc2nc(-c3ccc(Br)cc3)cs2)nc2ccccc2c1=O [AS158b]
Response: 2000

---

# target: NOX2 (Homo sapiens)
# Construct: isolated plasma membranes from human neutrophils as a source for Nox2-p22phox; from tissue; host or cells: Plasma membranes of human neutrophils (Nox2-p22phox); cytosolic factors recombinant from E. coli
# testProtocol: Nox2 cell-free assay (LO12 luminescence)
# Format: biochemical
# experimentalSetup: Nox2 cell-free system; value in parentheses; read-out: % inhibition (maximum inhibition achieved at a very high concentration of the compound)
# Description: The following compounds were tested according to the procedures provided in the experimental section. Assays were carried out using the Nox2 cell-free system. […] In certain assays a Cell-Free recombinant NOX-2 system (consisting of isolated plasma membranes from human neutrophils as a source for Nox2-p22phox, supplemented with recombinant p47phox, p67phox and Rac1Q61L (activated Rac), expressed in and isolated from of E. coli. LO12 luminescence was used as a readout to monitor enzymatic activity. […]
Would you mind labelling by Emax? At or over 90% is 1 (yes), under is 0 (no).

Prompt: Given CN(C)CCCn1c(SCC(=O)Nc2nc(-c3cccc(F)c3)cs2)nc2ccccc2c1=O , state whether its Emax is at least 90%.
Response: 1 (yes)

Prompt: Quick one: CN1CCN(CCCn2c(=S)[nH]c3ccccc3c2=O)CC1
Response: 0 (no)

Prompt: Quick one: CC(Sc1nc2ccccc2c(=O)n1CCCN(C)C)C(=O)Nc1nc(-c2cccc(Br)c2)cs1 (stereo not drawn)
Response: 0 (no)

Prompt: Quick one: CN(C)CCCCCn1c(=S)[nH]c2ccccc2c1=O
Response: 0 (no)

Prompt: Quick one: O=C(CSc1nc2ccccc2c(=O)n1CCN1CCCCC1)Nc1nc(-c2cccc(Br)c2)cs1
Response: 0 (no)

Prompt: Quick one: CN1CCC(n2c(=S)[nH]c3ccccc3c2=O)CC1
Response: 0 (no)

---

I'd appreciate it if you could supply IC50 values for the items below.
# target: NOX2 (Homo sapiens, UniProt P04839)
# Construct: isolated plasma membranes from human neutrophils as a source for Nox2-p22phox; cytosolic factors recombinant from E. coli
# Sequence (P04839 2-570 limits assumed): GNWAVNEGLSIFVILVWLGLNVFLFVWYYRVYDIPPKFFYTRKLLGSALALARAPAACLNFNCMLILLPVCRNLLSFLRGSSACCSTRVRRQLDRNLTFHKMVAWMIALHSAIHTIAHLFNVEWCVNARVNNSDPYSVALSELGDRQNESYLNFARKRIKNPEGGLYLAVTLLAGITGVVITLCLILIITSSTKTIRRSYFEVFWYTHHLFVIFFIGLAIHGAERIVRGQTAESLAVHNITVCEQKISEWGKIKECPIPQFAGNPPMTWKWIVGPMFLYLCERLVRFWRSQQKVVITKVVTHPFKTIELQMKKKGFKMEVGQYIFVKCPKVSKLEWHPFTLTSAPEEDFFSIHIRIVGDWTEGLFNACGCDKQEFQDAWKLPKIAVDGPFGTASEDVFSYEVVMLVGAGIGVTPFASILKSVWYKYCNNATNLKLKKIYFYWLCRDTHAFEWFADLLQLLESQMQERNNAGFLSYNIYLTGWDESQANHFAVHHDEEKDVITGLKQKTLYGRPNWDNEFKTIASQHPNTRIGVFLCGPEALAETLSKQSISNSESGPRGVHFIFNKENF
# Sequence (P13498 2-195 partner limits assumed): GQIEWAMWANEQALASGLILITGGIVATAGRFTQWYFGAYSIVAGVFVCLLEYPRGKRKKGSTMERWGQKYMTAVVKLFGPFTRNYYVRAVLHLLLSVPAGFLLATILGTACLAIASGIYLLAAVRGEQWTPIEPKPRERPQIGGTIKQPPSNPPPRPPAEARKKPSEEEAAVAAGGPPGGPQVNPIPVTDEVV
# testProtocol: Nox2 cell-free assay (LO12 luminescence)
# experimentalSetup: Nox2 cell-free system; read-out: NOX2 IC50 (concentration giving half-maximal inhibition)
# Method: The following compounds were tested according to the procedures provided in the experimental section. Assays were carried out using the Nox2 cell-free system. […] In certain assays a Cell-Free recombinant NOX-2 system (consisting of isolated plasma membranes from human neutrophils as a source for Nox2-p22phox, supplemented with recombinant p47phox, p67phox and Rac1Q61L (activated Rac), expressed in and isolated from of E. coli. LO12 luminescence was used as a readout to monitor enzymatic activity. […]
Lab book: enter the figure in nM, no units written.

Prompt: Fill blank: measured IC50 of the compound O=c1c2cc(Cl)ccc2[nH]c(=S)n1CCCN1CCCCC1 [TG6-243] is ____.
Response: 600

Prompt: Quick one: COc1ccc(N2CCN(CCn3c(=S)[nH]c4ccc(Cl)cc4c3=O)CC2)cc1
Response: 300

Prompt: Quick one: CCN(CC)CCn1c(SCC(=O)Nc2nc(-c3cccc(Br)c3)cs2)nc2ccccc2c1=O
Response: 2000

Prompt: Quick one: COc1ccc(N(C)CCCNC(=O)c2cc(F)ccc2N)cc1
Response: 200
